# target.system: MetRS (C. parvum) (Cryptosporidium parvum)
# test.summary: MetRS (C. parvum) enzyme inhibition
# Format: biochemical
# assay.conditions: read-out: (C) MetRS (C. parvum) IC50
pIC50: −log10 of the molar value.
readout: pIC50

Past entries and their recorded results:
Problem: May I ask what pIC50 has been recorded for `CCn1c(Cc2ccc(Cl)cc2Cl)cn(Cc2nc3nc(F)ccc3[nH]2)c1=O` ?
Solution: > 7.40

Problem: May I ask what pIC50 has been recorded for `O=c1n(Cc2nc3nc(F)ccc3[nH]2)cc(Cc2ccc(Cl)cc2Cl)n1CC(F)F` ?
Solution: > 7.40

Problem: May I ask what pIC50 has been recorded for `COc1cc(-c2cccc3nc(Cc4nc5nc(Cl)ccc5[nH]4)cn23)c(Cl)cc1Cl` ?
Solution: > 7.40

---
Problem: May I ask what pIC50 has been recorded for `CSc1nc(Cc2ccc(Cl)cc2Cl)cn1Cc1nc2nc(Cl)ccc2[nH]1` ?
Solution: > 7.40

Problem: May I ask what pIC50 has been recorded for `COc1ccc(Cc2cn(Cc3nc4c(Cl)c(Cl)ccc4[nH]3)c(=O)n2CC(C)(C)O)c(Cl)c1` ?
Solution: > 7.40

====

Here we list compounds with their recorded IC50 when tested on UniProt:Q38C91.
Sequence (Q38C91 1-773): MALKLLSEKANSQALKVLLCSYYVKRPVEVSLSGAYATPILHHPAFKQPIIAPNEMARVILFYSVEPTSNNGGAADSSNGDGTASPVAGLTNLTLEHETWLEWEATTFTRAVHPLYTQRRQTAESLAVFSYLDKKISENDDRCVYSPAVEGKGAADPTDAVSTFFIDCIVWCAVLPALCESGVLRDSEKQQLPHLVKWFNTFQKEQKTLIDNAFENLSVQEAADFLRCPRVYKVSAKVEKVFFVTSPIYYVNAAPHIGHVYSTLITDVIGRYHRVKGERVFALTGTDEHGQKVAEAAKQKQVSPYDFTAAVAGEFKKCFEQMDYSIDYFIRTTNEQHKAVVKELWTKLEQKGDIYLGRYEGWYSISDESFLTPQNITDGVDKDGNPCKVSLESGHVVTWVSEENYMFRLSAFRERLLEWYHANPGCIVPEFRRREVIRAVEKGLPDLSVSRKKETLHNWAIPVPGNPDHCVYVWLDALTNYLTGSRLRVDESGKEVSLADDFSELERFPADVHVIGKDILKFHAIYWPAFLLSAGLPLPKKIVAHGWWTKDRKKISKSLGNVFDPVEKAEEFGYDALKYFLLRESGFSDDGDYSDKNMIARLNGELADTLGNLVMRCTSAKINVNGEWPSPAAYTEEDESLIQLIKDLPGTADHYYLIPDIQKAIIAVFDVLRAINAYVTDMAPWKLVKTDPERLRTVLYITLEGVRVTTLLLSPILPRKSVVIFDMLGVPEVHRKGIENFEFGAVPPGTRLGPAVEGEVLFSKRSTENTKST

Past entries and their recorded results:
Problem: May I ask what IC50 has been recorded for `COc1ccc(-c2c3c(nn2C)CCN(Cc2nc4nc(Cl)ccc4[nH]2)C3)c(Cl)c1` ?
Solution: < 40 nM

Problem: May I ask what IC50 has been recorded for `O=c1n(Cc2nc3nc(F)ccc3[nH]2)cc(Cc2ccc(Cl)cc2Cl)n1CC(F)F` ?
Solution: < 40 nM

Problem: May I ask what IC50 has been recorded for `COc1ccc(-c2cnc(NC(C)=O)c3nc(Cc4nc5nc(Cl)ccc5[nH]4)cn23)c(Cl)c1` ?
Solution: 59 nM

Now consider the entry below.
Problem: May I ask what IC50 has been recorded for `CSc1nc(Cc2ccc(Cl)cc2Cl)cn1Cc1nc2ccc(F)nc2[nH]1` ?
Solution: < 40 nM

====

# target.system: MetRS (C. parvum) (Cryptosporidium parvum, UniProt Q5CVN0)
# Sequence (Q5CVN0 entry or part of it): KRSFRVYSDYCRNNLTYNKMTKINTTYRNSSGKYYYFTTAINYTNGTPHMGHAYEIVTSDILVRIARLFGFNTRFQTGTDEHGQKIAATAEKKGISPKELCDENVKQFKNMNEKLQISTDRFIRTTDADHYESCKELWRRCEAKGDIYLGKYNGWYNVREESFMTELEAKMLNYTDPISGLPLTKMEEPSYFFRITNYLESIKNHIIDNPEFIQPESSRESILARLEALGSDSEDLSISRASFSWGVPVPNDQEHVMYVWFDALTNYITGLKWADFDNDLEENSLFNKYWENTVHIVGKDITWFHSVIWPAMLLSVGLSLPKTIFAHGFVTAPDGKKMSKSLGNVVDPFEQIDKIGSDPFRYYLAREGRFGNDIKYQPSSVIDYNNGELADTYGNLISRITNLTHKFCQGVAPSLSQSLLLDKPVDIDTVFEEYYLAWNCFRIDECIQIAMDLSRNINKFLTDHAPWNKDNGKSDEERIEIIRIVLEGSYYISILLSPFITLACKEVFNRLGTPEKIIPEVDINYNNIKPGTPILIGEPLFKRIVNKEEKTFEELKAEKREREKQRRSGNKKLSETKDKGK
# test.summary: MetRS (C. parvum) enzyme inhibition
# Format: biochemical
# assay.conditions: read-out: (C) MetRS (C. parvum) IC50
pIC50: −log10 of the molar value.
A collection of compounds and their measured pIC50

Problem: May I ask what pIC50 has been recorded for COc1ccc(-c2nccn3c(=O)n(Cc4nc5nc(Cl)ccc5[nH]4)cc23)c(Cl)c1 [Compound 2249] ?
Solution: 6.91

Problem: May I ask what pIC50 has been recorded for FC(F)(F)c1ccc(-c2cccc3nc(Cc4nc5nc(Cl)ccc5[nH]4)cn23)c(Cl)c1 [Compound 2126] ?
Solution: < 6.00

Problem: May I ask what pIC50 has been recorded for COc1ccc(-c2cccc3nc(Cc4nc5nc(Cl)ccc5[nH]4)cn23)c(Cl)c1 [Compound 2119] ?
Solution: > 7.40

Problem: May I ask what pIC50 has been recorded for CCn1c(Cc2ccc(OC)cc2Cl)cn(Cc2nc3nc(F)ccc3[nH]2)c1=O [Compound 2114] ?
Solution: > 7.40

Problem: May I ask what pIC50 has been recorded for COc1cc(Cl)c(-c2cccc3nc(Cc4nc5nc(F)ccc5[nH]4)cn23)cc1OC [Compound 2145] ?
Solution: 7.13

Problem: May I ask what pIC50 has been recorded for Clc1ccc(Cc2cn(Cc3nc4ccc(Cl)cc4[nH]3)c(Br)n2)c(Cl)c1 [Compound 2194] ?
Solution: < 6.00
